- target_or_system: norepinephrine transporter (NET) (Rattus norvegicus, UniProt Q63380)
- Sequence (Q63380 1-617): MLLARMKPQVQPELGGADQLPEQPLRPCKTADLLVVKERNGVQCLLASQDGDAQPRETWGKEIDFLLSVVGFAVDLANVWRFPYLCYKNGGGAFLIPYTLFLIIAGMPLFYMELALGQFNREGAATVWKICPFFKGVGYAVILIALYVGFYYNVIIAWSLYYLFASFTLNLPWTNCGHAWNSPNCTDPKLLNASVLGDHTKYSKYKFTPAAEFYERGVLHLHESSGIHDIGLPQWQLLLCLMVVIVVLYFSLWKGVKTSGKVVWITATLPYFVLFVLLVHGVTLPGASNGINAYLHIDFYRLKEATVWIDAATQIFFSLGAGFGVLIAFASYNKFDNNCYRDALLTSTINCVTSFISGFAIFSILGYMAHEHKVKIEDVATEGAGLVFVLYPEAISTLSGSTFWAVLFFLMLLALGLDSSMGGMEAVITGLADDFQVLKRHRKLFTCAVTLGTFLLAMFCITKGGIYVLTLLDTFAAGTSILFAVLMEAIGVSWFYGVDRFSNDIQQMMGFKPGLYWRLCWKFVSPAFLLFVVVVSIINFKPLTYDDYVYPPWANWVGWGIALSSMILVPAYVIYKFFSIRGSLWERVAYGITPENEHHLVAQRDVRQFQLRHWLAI
- measurement_notes: [3H]norepinephrine (NE) uptake inhibition in rat brain synaptosomes
- condition_set: read-out: NET Uptake IC50; mean ± S.D.; n = 3
Assignment: determine reported IC50 for the given molecules.
// note: answer is a bare numeric in nM

Query :: Request: IC50, test system norepinephrine transporter (NET) (Rattus norvegicus, UniProt Q63380), entry CS(=O)(=O)Nc1ccc(-c2nc(NCC(O)(c3ccccc3)c3ccccc3)c3ccccc3n2)cc1
Result :: 426

Query :: Consider next the molecule c1ccc(C(CCNc2nc(-c3ccc4[nH]ccc4c3)nc3ccccc23)c2ccccc2)cc1 in the same way.
Result :: 346

Query :: Try the molecule OC(CNc1nc(-c2ccc3[nH]ccc3c2)nc2ccccc12)(c1ccccc1)c1ccccc1
Result :: 203

Query :: Do the same for CN(C)c1ccc(-c2nc(NCC(c3ccccc3)c3ccccc3)c3ccccc3n2)cc1 please
Result :: 143

Query :: Queued: OC(CNc1nc(-c2cnc3nccn3c2)nc2ccccc12)(c1ccccc1)c1ccccc1
Result :: 69

Query :: How about this molecule: c1ccc(C(CNc2nc(-c3ccc4ncnn4c3)nc3ccccc23)c2ccccc2)cc1
Result :: 86

Query :: Next molecule up: CNc1ncc(-c2nc(NCC(c3ccccc3)c3ccccc3)c3ccccc3n2)cn1
Result :: 179

Query :: Now consider CN(C)c1ncc(-c2nc(NCC(O)(c3ccccc3)c3ccccc3)c3ccccc3n2)cn1 and answer again.
Result :: 259

Query :: Same question, Cl.Fc1ccc2c(NCC(c3ccccc3)c3ccccc3)nc(-c3ccc4nccn4c3)nc2c1 this time
Result :: 94

Query :: Continue with c1ccc(C(CNc2nc(-c3cnc4nccn4c3)nc3ccccc23)c2ccccn2)cc1 (centres unmarked)
Result :: 132

Query :: One more molecule: CN(C)c1ncc(-c2nc(NCC(c3ccccc3)c3ccccc3)c3ccccc3n2)cn1
Result :: 181

Query :: Can you handle CS(=O)(=O)Nc1ccc(-c2nc(NCC(c3ccccc3)c3ccccc3)c3ccccc3n2)cc1 next?
Result :: 90

Query :: Similarly, c1ccc(C(CNc2nc(-c3cccnc3)nc3ccccc23)c2ccccc2)cc1 ?
Result :: 5850

Query :: Likewise for CN(C)c1ccc(-c2nc(NCC(c3ccccc3)c3ccccc3)c3ccccc3n2)cn1 ?
Result :: 147

Query :: Follow-up item: Cc1cc2nccn2cc1-c1nc(NCC(c2ccccc2)c2ccc[nH]2)c2ccccc2n1 (centres unmarked)
Result :: 11

Query :: Could you do the same for CS(=O)(=O)Nc1ccc(-c2nc(NCC(c3ccccc3)c3ccccc3)c3ccccc3n2)c(Cl)c1 , please?
Result :: 47

Query :: Try c1ccc(C(CNc2nc(-c3cnc4nccn4c3)nc3ccccc23)c2ccccc2)cc1 next.
Result :: 63

Just for reference, patent US10087148B2 is where these values come from.
